# Test system: HCT-15 colon
# assay: NCI tumour cell line growth inhibition, 48 h
measurementKind: TGI

(Q) Reported TGI, compound `Cc1ccccc1N(C)S(=O)(=O)c1ccccc1[N+](=O)[O-]` : ____
(A) > 100 µM

(Q) Moving on to `O=S(=O)(O)c1c(N=Nc2c(O)ccc3ccccc23)ccc2ccccc12`
(A) > 100 µM

(Q) And what about the compound `O=C1N=C(c2ccccc2)O/C1=C\c1ccccc1` ?
(A) > 100 µM

(Q) Also need COC(=O)C1=CC[C@@H]2C(C(=O)O)=CO[C@@H](OC3OC(CO)C(O)C(O)C3O)[C@H]12 (some centres undefined) , thanks.
(A) > 300 µM

###

# Test system: MALME-3M melanoma
# assay: NCI tumour cell line growth inhibition, 48 h
measurementKind: TGI

Recorded results for 4 compounds are shown here.
| compound | TGI |
| --- | --- |
| Cc1cc(C)nc(Nc2nc3ccc([N+](=O)[O-])cc3[nH]2)n1 | > 100 µM |
| CC1=NN(C(=O)Cc2ccccc2)C(=O)/C1=C\C=C\c1ccccc1 | > 100 µM |
| CC(=O)Nc1ccc(C2[C@H]3C(=O)N(c4ccc(Cc5ccc(N6C(=O)[C@@H]7ON(c8ccccc8)C(c8ccc(NC(C)=O)cc8)[C@@H]7C6=O)cc5)cc4)C(=O)[C@H]3ON2c2ccccc2)cc1 (stereo not given in full) | > 100 µM |
| Cc1ccccc1N(C)S(=O)(=O)c1ccccc1[N+](=O)[O-] | > 100 µM |

Here's the next entry for you.
(Q) Give its TGI value. Item: `CN(C)CCCNC(=O)c1cc(NC(=O)c2cc(NC(=O)c3cc(NC(=O)CCc4c[nH]c5ccccc45)cn3C)cn2C)cn1C`
(A) 88.7 µM

###

# Tested on: SK-MEL-28 melanoma
# assay: NCI tumour cell line growth inhibition, 48 h
Below: a set of entries, each annotated with reported TGI.
Answer in µM, number only, no unit symbol.

Reference set (3 entries):
| compound | targetOrSystem | TGI / µM |
| --- | --- | --- |
| CC(=O)CCC[C@@H](C)[C@@H]1O[C@H]([C@@]2(C)CCC(=O)O2)C[C@H]2C(CSc3ccccc3)C(=O)O[C@@H]12 (stereo not given in full) | SK-MEL-28 melanoma | 41.7 |
| O=C1c2ccccc2-c2c1c1ccccc1c(=O)n2CCNCCNCCn1c2c(c3ccccc3c1=O)C(=O)c1ccccc1-2 | SK-MEL-28 melanoma | 24.5 |
| CCOC(=O)CC[C@@H](NC(=O)c1ccc(N[C@@H]2c3cc4c(cc3C(c3cc(OC)c(O)c(OC)c3)C3C(=O)OC[C@@H]32)OCO4)cc1)C(=O)OCC (stereo not given in full) | SK-MEL-28 melanoma | 0.53 |

(Q) Fill in the recorded TGI for this compound, with SK-MEL-28 melanoma as test system: `C=C1C(=O)O[C@H]2[C@H]1CC/C(Cn1cc(-c3ccccc3)nn1)=C\CC[C@@]1(C)O[C@@H]21`
(A) 2.48

###

# System: 786-0 renal
# assay: NCI tumour cell line growth inhibition, 48 h; in the data active = GI50 below about 0.43 µM; inactive = the rest
Use one of these outcomes when replying: Y (active), N (inactive)

| compound | groupLabel |
| --- | --- |
| C[C@H]1CCC/C=C/[C@@H]2C[C@H](O)C[C@H]2[C@H](O)[C@@H](S(=O)CCN(C)C)CC(=O)O1 (stereo partly specified) | Y |

(Q) Any idea what this test logged for `O=C(Nc1ncc(Cc2ccccc2Cl)s1)c1ccc2c(c1)OCCO2` ?
(A) N

(Q) Let us now turn to `O=[N+]([O-])/C=C/c1c[nH]c2ccccc12`
(A) N

(Q) Repeat for the following compound: `Cc1cc(S(=O)(=O)Nc2nnc(-c3ccccc3)c(-c3ccccc3)n2)c(SCc2ccccc2)cc1Cl`
(A) N

(Q) Next up: `Cc1nc2cccc(NCc3ccc(C(=O)NO)cc3)c2c(=O)n1-c1ccccc1`
(A) N

(Q) Input `N=C(N)CCCCCCCCC(=N)N`
(A) N
